From: patent US11091479B2

Molecular target: recombinant human MAO-A (monoamine oxidase-A) (Homo sapiens, UniProt P21397)
Construct: purchased Sigma-Aldrich
Sequence (P21397 whole entry): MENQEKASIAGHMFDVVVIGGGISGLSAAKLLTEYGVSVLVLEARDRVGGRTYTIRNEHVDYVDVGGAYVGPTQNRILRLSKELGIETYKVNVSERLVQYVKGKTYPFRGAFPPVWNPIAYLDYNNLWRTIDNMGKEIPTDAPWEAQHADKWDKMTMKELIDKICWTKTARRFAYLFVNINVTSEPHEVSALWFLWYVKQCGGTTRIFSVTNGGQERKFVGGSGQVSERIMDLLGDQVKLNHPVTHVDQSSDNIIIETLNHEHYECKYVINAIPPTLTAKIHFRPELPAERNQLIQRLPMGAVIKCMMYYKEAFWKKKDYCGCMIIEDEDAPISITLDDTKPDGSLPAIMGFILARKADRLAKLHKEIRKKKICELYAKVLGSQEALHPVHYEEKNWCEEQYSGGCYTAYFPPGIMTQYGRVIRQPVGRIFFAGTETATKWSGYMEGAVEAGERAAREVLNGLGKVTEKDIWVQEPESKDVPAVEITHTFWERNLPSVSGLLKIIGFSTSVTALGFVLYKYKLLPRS
Test: Activity on recombinant human MAO-A, method similar to VAP-1 assay, 0.5 mM tyramine substrate
Format: biochemical
Conditions: read-out: Inhibitory Activity (IC50, nM) MAO-A
Structures can show the parent of a compound that is named as a salt.
test-readout: IC50

                                    compound  test_readout  reported_value
 0  NC/C(=C\F)Cn1nc2cc(-c3ccc(C(=O)N4CCOCC4)cc3)ccn2c1=O [Example 24, hydrochloride]          IC50     > 100000 nM
 1  CCn1cc(-c2ccn3c(=O)n(CC(CN)=C(F)F)nc3c2)cn1 [Example 55, trifluoroacetate]          IC50     > 100000 nM
 2  NC/C(=C\F)Cn1nc2ccc(-c3ccc(-c4nc[nH]n4)cc3)cn2c1=O [Example 5, trifluoroacetate]          IC50     > 100000 nM
 3  NC/C(=C\F)Cn1nc2cc(-c3ccc4nn[nH]c4c3)ccn2c1=O [Example 39, hydrochloride]          IC50        96000 nM
 4  NC/C(=C\F)Cn1nc2ccc(-c3ccc(C(F)(F)F)nc3)cn2c1=O [Example 9, hydrochloride]          IC50     > 100000 nM
 5  Cc1cc(-c2ccn3c(=O)n(C/C(=C/F)CN)nc3c2)cc2c1NC(=O)CC2 [Example 43, hydrochloride]          IC50     > 100000 nM
 6  NC/C(=C\F)Cn1nc2cc(-c3c[nH]c4ncccc34)ccn2c1=O [Example 35, hydrochloride]          IC50     > 100000 nM
 7  COc1ccc(-c2ccn3c(=O)n(C/C(=C/F)CN)nc3c2)cn1 [Example 31, hydrochloride]          IC50     > 100000 nM
 8  NC/C(=C\F)Cn1nc2cc(-c3ccc4c(c3)NC(=O)CO4)ccn2c1=O [Example 42, hydrochloride]          IC50         5400 nM
 9  NC/C(=C\F)Cn1nc2cc(-c3ccc4nonc4c3)ccn2c1=O [Example 38, hydrochloride]          IC50         3500 nM
10  NC/C(=C\F)Cn1nc2cc(-c3ccnc4[nH]ccc34)ccn2c1=O [Example 40, hydrochloride]          IC50     > 100000 nM
11  CS(=O)(=O)c1ccc(-c2ccn3c(=O)n(CC(CN)=C(F)F)nc3c2)cc1 [Example 48, trifluoroacetate]          IC50     > 100000 nM
12  NC/C(=C\F)Cn1nc2ccc(-c3ccc(-c4ccon4)cc3)cn2c1=O [Example 7, hydrochloride]          IC50     > 100000 nM
13  NCC(Cn1nc2cc(C#Cc3cnc4c(c3)NCCO4)ccn2c1=O)=C(F)F [Example 60, ditrifluoroacetate]          IC50     > 100000 nM
14  NC/C(=C\F)Cn1nc2ccc(-c3ccc(N4CCOCC4)nc3)cn2c1=O [Example 10, trifluoroacetate]          IC50     > 100000 nM

----------
Molecular target: recombinant human VAP-1 (Homo sapiens, UniProt Q16853)
Construct: purchased R&D systems
Sequence (Q16853 whole entry): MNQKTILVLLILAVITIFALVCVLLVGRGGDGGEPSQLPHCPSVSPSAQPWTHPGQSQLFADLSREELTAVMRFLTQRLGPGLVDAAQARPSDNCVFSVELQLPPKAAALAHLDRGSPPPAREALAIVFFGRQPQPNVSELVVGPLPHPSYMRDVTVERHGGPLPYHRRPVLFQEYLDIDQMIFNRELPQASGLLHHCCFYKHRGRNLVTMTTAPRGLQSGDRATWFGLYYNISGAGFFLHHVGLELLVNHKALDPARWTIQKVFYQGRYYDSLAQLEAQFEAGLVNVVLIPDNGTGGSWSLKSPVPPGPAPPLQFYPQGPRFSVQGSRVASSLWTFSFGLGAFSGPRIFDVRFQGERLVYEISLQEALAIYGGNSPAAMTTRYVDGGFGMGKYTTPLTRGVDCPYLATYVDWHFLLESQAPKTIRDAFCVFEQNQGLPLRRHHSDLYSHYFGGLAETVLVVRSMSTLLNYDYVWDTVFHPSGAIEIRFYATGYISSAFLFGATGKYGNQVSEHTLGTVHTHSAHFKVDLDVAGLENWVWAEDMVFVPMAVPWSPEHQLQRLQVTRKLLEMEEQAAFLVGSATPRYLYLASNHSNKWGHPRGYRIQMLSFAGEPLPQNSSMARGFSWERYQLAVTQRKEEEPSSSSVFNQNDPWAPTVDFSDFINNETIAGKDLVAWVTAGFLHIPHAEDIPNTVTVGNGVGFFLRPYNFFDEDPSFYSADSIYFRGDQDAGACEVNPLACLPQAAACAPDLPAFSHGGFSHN
Assay: Activity on recombinant human VAP-1, HRP-coupled Amplex Red hydrogen peroxide assay, benzylamine substrate
Type: biochemical
Settings: 30 min incubation at 37° C., 1 mM benzylamine, read-out: Inhibitory Activity (IC50, nM) human VAP-1
Structures can show the parent of a compound that is named as a salt.
I'd appreciate it if you could label each record using IC50 and these ranges: b0 (below 0.3 nM), b1 (0.3 nM to below 2 nM), b2 (2 nM or more)

                                    compound                             tested_target  qualitative_label
 0  NC/C(=C\F)Cn1nc2cc(-c3ccc4nonc4c3)ccn2c1=O [Example 38, hydrochloride]  recombinant human VAP-1 (Homo sapiens, UniProt Q16853)                 b0
 1  NCC(Cn1nc2cc(-c3ccc(N4CCNCC4)cc3)ccn2c1=O)=C(F)F [Example 49, ditrifluoroacetate]  recombinant human VAP-1 (Homo sapiens, UniProt Q16853)                 b1
 2  NC/C(=C\F)Cn1nc2cc(-c3ccc(-c4ccon4)cc3)ccn2c1=O [Example 25, hydrochloride]  recombinant human VAP-1 (Homo sapiens, UniProt Q16853)                 b0
 3  NC/C(=C\F)Cn1nc2cc(-c3ccc(-c4noc(C5CC5)n4)cc3)ccn2c1=O [Example 29, hydrochloride]  recombinant human VAP-1 (Homo sapiens, UniProt Q16853)                 b1
 4  Cc1cc(-c2ccn3c(=O)n(C/C(=C/F)CN)nc3c2)cc2c1NC(=O)CC2 [Example 43, hydrochloride]  recombinant human VAP-1 (Homo sapiens, UniProt Q16853)                 b1
 5  NC/C(=C\F)Cn1nc2ccc(-c3ccc4nonc4c3)cn2c1=O [Example 16, trifluoroacetate]  recombinant human VAP-1 (Homo sapiens, UniProt Q16853)                 b2
 6  NC/C(=C\F)Cn1nc2ccc(-c3cccc(-c4nc[nH]n4)c3)cn2c1=O  recombinant human VAP-1 (Homo sapiens, UniProt Q16853)                 b2
 7  CN1C(=O)CCc2cc(-c3ccn4c(=O)n(CC(CN)=C(F)F)nc4c3)ccc21 [Example 54, trifluoroacetate]  recombinant human VAP-1 (Homo sapiens, UniProt Q16853)                 b0
 8  NCC(Cn1nc2cccc(Br)n2c1=O)=C(F)F [Example 45, trifluoroacetate]  recombinant human VAP-1 (Homo sapiens, UniProt Q16853)                 b2
 9  NC/C(=C\F)Cn1nc2cc(-c3ccc(-c4cnon4)cc3)ccn2c1=O [Example 27, hydrochloride]  recombinant human VAP-1 (Homo sapiens, UniProt Q16853)                 b1
10  CS(=O)(=O)c1ccc(-c2ccc3nn(C/C(=C/F)CN)c(=O)n3c2)cc1 [Example 3, trifluoroacetate]  recombinant human VAP-1 (Homo sapiens, UniProt Q16853)                 b2

----------
Target: recombinant human VAP-1 (Homo sapiens, UniProt Q16853)
Construct: purchased R&D systems
Test: Activity on recombinant human VAP-1, HRP-coupled Amplex Red hydrogen peroxide assay, benzylamine substrate
Format: biochemical
Conditions: 30 min incubation at 37° C., 1 mM benzylamine, read-out: Inhibitory Activity (IC50, nM) human VAP-1
Counter-ions that a name gives are not always drawn.
test-readout: IC50 (nM)

>>> df
                                    molecule                             tested_target  reported_value
 0  NC/C(=C\F)Cn1nc2ccc(-c3ccc(-c4nc[nH]n4)cc3)cn2c1=O [Example 5, trifluoroacetate]  recombinant human VAP-1 (Homo sapiens, UniProt Q16853)               2
 1  NC/C(=C\F)Cn1nc2cc(-c3c[nH]c4ncccc34)ccn2c1=O [Example 35, hydrochloride]  recombinant human VAP-1 (Homo sapiens, UniProt Q16853)             0.2
 2  COc1ccc(-c2ccn3c(=O)n(C/C(=C/F)CN)nc3c2)cn1 [Example 31, hydrochloride]  recombinant human VAP-1 (Homo sapiens, UniProt Q16853)             0.3
 3  NC/C(=C\F)Cn1nc2cc(-c3ccc(C(F)(F)F)nc3)ccn2c1=O [Example 30, hydrochloride]  recombinant human VAP-1 (Homo sapiens, UniProt Q16853)             0.3
 4  CN(C)c1ccc(C#Cc2ccn3c(=O)n(CC(CN)=C(F)F)nc3c2)cn1 [Example 57, trifluoroacetate]  recombinant human VAP-1 (Homo sapiens, UniProt Q16853)             0.3
 5  CN(C)c1ccc(-c2ccn3c(=O)n(C/C(=C/F)CN)nc3c2)cn1 [Example 32, hydrochloride]  recombinant human VAP-1 (Homo sapiens, UniProt Q16853)             0.4
 6  NC/C(=C\F)Cn1nc2ccc(-c3ccc(N4CCOCC4)nc3)cn2c1=O [Example 11, hydrochloride]  recombinant human VAP-1 (Homo sapiens, UniProt Q16853)             3.7
 7  NC/C(=C\F)Cn1nc2cccc(-c3ccc(-c4ccon4)cc3)n2c1=O [Example 19, trifluoroacetate]  recombinant human VAP-1 (Homo sapiens, UniProt Q16853)              38
 8  NC/C(=C\F)Cn1nc2cc(-c3ccc4nn[nH]c4c3)ccn2c1=O [Example 39, hydrochloride]  recombinant human VAP-1 (Homo sapiens, UniProt Q16853)             0.1
 9  NC/C(=C\F)Cn1nc2cc(-c3ccc4cn[nH]c4c3)ccn2c1=O [Example 37, hydrochloride]  recombinant human VAP-1 (Homo sapiens, UniProt Q16853)             0.1
10  NC/C(=C\F)Cn1nc2ccc(-c3ccc4c(c3)OCCO4)cn2c1=O [Example 13, trifluoroacetate]  recombinant human VAP-1 (Homo sapiens, UniProt Q16853)             4.8
11  NCC(Cn1nc2cc(C#Cc3cnc4c(c3)OCCN4)ccn2c1=O)=C(F)F [Example 61, ditrifluoroacetate]  recombinant human VAP-1 (Homo sapiens, UniProt Q16853)             0.6
12  CC(=O)Nc1ccc(-c2cccc3nn(C/C(=C/F)CN)c(=O)n23)cc1 [Example 18, trifluoroacetate]  recombinant human VAP-1 (Homo sapiens, UniProt Q16853)              90
13  NC/C(=C\F)Cn1nc2cc(-c3ccc(C(=O)N4CCOCC4)cc3)ccn2c1=O [Example 24, hydrochloride]  recombinant human VAP-1 (Homo sapiens, UniProt Q16853)             0.6
14  Cc1cc(-c2ccc3nn(C/C(=C/F)CN)c(=O)n3c2)cc2c1NC(=O)CC2 [Example 17, hydrochloride]  recombinant human VAP-1 (Homo sapiens, UniProt Q16853)             0.6
15  NC/C(=C\F)Cn1nc2cc(-c3ccc4c(c3)NC(=O)OC4)ccn2c1=O [Example 41, hydrochloride]  recombinant human VAP-1 (Homo sapiens, UniProt Q16853)             0.3
16  CN1CCOc2cc(C#Cc3ccn4c(=O)n(CC(CN)=C(F)F)nc4c3)ccc21 [Example 63, trifluoroacetate]  recombinant human VAP-1 (Homo sapiens, UniProt Q16853)             2.2
17  NCC(Cn1nc2ccc(Br)cn2c1=O)=C(F)F [Example 46, trifluoroacetate]  recombinant human VAP-1 (Homo sapiens, UniProt Q16853)              36
18  NC/C(=C\F)Cn1nc2cc(-c3cccc(-c4noc(C5CC5)n4)c3)ccn2c1=O [Example 28, hydrochloride]  recombinant human VAP-1 (Homo sapiens, UniProt Q16853)             0.5
19  NCC(Cn1nc2cc(C#Cc3ccc4c(c3)NCCO4)ccn2c1=O)=C(F)F [Example 59, ditrifluoroacetate]  recombinant human VAP-1 (Homo sapiens, UniProt Q16853)             1.8
20  NCC(Cn1nc2cc(C#Cc3ccc4c(c3)CCC(=O)N4)ccn2c1=O)=C(F)F [Example 62, trifluoroacetate]  recombinant human VAP-1 (Homo sapiens, UniProt Q16853)             0.2
21  CS(=O)(=O)c1cccc(-c2ccn3c(=O)n(C/C(=C/F)CN)nc3c2)c1 [Example 22, hydrochloride]  recombinant human VAP-1 (Homo sapiens, UniProt Q16853)             0.7
22  NC/C(=C\F)Cn1nc2ccc(Br)cn2c1=O [Example 1, hydrochloride]  recombinant human VAP-1 (Homo sapiens, UniProt Q16853)              87
23  NCC(Cn1nc2cc(-c3ccc4c(c3)OCO4)ccn2c1=O)=C(F)F [Example 52, trifluoroacetate]  recombinant human VAP-1 (Homo sapiens, UniProt Q16853)             0.3
24  CS(=O)(=O)c1ccc(-c2ccn3c(=O)n(CC(CN)=C(F)F)nc3c2)cc1 [Example 48, trifluoroacetate]  recombinant human VAP-1 (Homo sapiens, UniProt Q16853)             0.1
25  Cn1cc(C#Cc2ccn3c(=O)n(CC(CN)=C(F)F)nc3c2)cn1 [Example 56, trifluoroacetate]  recombinant human VAP-1 (Homo sapiens, UniProt Q16853)               1
26  CN(C)c1ccc(-c2ccn3c(=O)n(CC(CN)=C(F)F)nc3c2)cn1 [Example 51, trifluoroacetate]  recombinant human VAP-1 (Homo sapiens, UniProt Q16853)             0.4
27  NC/C(=C\F)Cn1nc2ccc(-c3ccc(S(=O)(=O)N4CCOCC4)cc3)cn2c1=O [Example 4, trifluoroacetate]  recombinant human VAP-1 (Homo sapiens, UniProt Q16853)             6.2
28  NC/C(=C\F)Cn1nc2ccc(-c3ccc(N4CCOCC4)nc3)cn2c1=O [Example 10, trifluoroacetate]  recombinant human VAP-1 (Homo sapiens, UniProt Q16853)             6.6
29  NC/C(=C\F)Cn1nc2cc(C3=CCNCC3)ccn2c1=O [Example 34, dihydrochloride]  recombinant human VAP-1 (Homo sapiens, UniProt Q16853)               2
